# EXPERIMENTAL SYSTEM: human PAD4 (Homo sapiens, UniProt Q9UM07)
# Construct: human PAD4 (NM_012387), A2-P663, was PCR amplified; His-SUMO (N, cleaved yes)
# Sequence (Q9UM07 2-663): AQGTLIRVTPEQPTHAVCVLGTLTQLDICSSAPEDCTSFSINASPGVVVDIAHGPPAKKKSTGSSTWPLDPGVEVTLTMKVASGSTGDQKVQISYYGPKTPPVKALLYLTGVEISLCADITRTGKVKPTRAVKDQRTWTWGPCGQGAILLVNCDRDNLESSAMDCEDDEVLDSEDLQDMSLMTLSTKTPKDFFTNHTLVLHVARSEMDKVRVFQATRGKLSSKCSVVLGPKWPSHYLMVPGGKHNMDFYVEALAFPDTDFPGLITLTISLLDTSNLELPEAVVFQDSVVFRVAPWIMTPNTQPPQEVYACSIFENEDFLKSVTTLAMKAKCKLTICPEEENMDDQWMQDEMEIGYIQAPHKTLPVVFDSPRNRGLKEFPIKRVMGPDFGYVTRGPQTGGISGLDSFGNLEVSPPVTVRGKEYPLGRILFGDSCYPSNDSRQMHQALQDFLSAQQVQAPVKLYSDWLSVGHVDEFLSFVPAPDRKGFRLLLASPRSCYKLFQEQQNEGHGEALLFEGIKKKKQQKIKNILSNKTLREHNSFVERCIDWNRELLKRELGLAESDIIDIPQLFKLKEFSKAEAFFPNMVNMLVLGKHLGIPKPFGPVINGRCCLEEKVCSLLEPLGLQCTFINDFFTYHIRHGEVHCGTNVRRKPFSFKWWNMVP
# EXPERIMENT DESCRIPTION: In vitro PAD4 BAEE biochemical assay
# REPORTED CONDITIONS: BAEE substrate 3 mM, 5 nM PAD4, 2 mM calcium chloride; geometric mean of multiple experiments
pIC50 overview
Please keep in mind that pIC50 is minus log10 of the molar concentration; only the number is needed.

1) COc1cc(C(=O)N2C[C@H](N)[C@@H]3CC[C@H]2C3)cc2nc(-c3cc4ccc5nc4n3CCCCC[C@@H]3C[C@H]3C(=O)N[C@@H]5C)n(C3CC3)c12 [Example 767] : 7.74
2) C[C@H]1NC(=O)C(C)(C)CCCCCCn2c(-c3nc4cc(C(=O)N[C@H]5CNCC[C@@H]5F)ccc4n3C)cc3ccc1nc32 [Example 500] : 7.05

Prompt: Give its pIC50 value. Item: COc1cc(C(=O)N2CC[C@@H](OC)[C@@H](N)C2)cc2nc(-c3cc4ccc5nc4n3CC(F)(F)CCCCC3(CCC3)C(=O)N[C@@H]5C)n(C)c12 [Example 614]
Response: 6.94

----------
pIC50 overview
# EXPERIMENTAL SYSTEM: human PAD4 (Homo sapiens, UniProt Q9UM07)
# Construct: human PAD4 (NM_012387), A2-P663, was PCR amplified; His-SUMO (N, cleaved yes); made in house; host or cells: E. coli BL21(DE3)
# EXPERIMENT DESCRIPTION: In vitro PAD4 BAEE biochemical assay
# REPORTED CONDITIONS: BAEE substrate 3 mM, 5 nM PAD4, 2 mM calcium chloride; geometric mean of multiple experiments
Please keep in mind that pIC50 is minus log10 of the molar concentration; only the number is needed.

Example entries and their recorded answers appear below.
1) COc1cc(C(=O)N2CCC[C@@H](N)C2)cc2nc(-c3cc4ccc5nc4n3CCCOC[C@@H]3C[C@@H]3C(=O)N[C@@H]5C)n(C)c12 : 5.86
2) C[C@H]1NC(=O)[C@H]2[C@@H](CCCC(F)(F)Cn3c(-c4nc5cc(C(=O)N[C@H]6CNCC[C@@H]6F)c(F)cc5n4C4CC4)cc4ccc1nc43)C2(F)F : 7.51

Prompt: Give its pIC50 value. Item: `COc1cc(C(=O)N2CC[C@@H](OC)[C@@H](N)C2)cc2nc(-c3cc4ccc5nc4n3CCCCCc3cccc(C)c3C(=O)N[C@@H]5C)n(C)c12`
Response: 6.86

----------
# EXPERIMENTAL SYSTEM: human PAD4 (Homo sapiens)
# Construct: human PAD4 (NM_012387), A2-P663, was PCR amplified; His-SUMO (N, cleaved yes)
# EXPERIMENT DESCRIPTION: In vitro PAD4 BAEE biochemical assay
# REPORTED CONDITIONS: BAEE substrate 3 mM, 5 nM PAD4, 2 mM calcium chloride; geometric mean of multiple experiments
pIC50 overview
Please keep in mind that pIC50 is minus log10 of the molar concentration; only the number is needed.

Example entries and their recorded answers appear below.
1. COc1cc(C(=O)N2CCC[C@@H](N)[C@H]2C)cc2nc(-c3cc4ccc5nc4n3CCCCCc3nccnc3C(=O)N[C@@H]5C)n(C)c12 : 7.26
2. COc1cc(C(=O)N2CCC[C@@H](N)C2)cc2nc(-c3cc4ccc5cc4n3CCCC3CCN(CC3)C(=O)c3ccccc3-5)n(C)c12 : 5.33
3. COc1cc(C(=O)N2[C@H]3CC[C@@H]2[C@H](N)C3)cc2nc(-c3cc4ccc5nc4n3CCCCC[C@@H](OC)C(C)(C)C(=O)N[C@@H]5C)n(C)c12 : 7.14
4. COc1cc(C(=O)N2[C@H]3CC[C@@H]2[C@H](N)C3)cc2nc(-c3cc4ccc5cc4n3CCCCCCC(C)(C)C(=O)Nc3ncccc3-5)n(C)c12 : 6.95
5. COc1cc(C(=O)N2CCC[C@@H](N)C2)cc2nc(-c3cc4ccc5nc4n3CCCCCOC(C)(C)C(=O)N[C@@H]5C)n(C)c12 : 7.07

Prompt: I'm curious: which pIC50 was measured for `COc1cc(C(=O)N2CC[C@@H](OC)[C@@H](N)C2)cc2nc(-c3cc4ccc5nc4n3CCCC(F)(F)C[C@@H]3C[C@H]3C(=O)N[C@@H]5C)n(C)c12` tested on human PAD4 (Homo sapiens)?
Response: 7.89
